Values were extracted from patent US6323185.

tested.system: HIV-1 integrase wild-type (IN1-288) (HIV-1, UniProt P12497 P12497:1148-1435)
assay.details: inhibition; first activity column (headed strand transfer); other column 0.120
condition.parameters: G4
recorded.metric: IC50 (nM)
Report the value in nM with no unit label.

Please give the measured IC50 for this binder: GTGGTGGGTGGGTTGGT (ssDNA, PS at first and last linkages) [T30678]
98
